Test system: MALME-3M melanoma
Assay: NCI tumour cell line growth inhibition, 48 h
QUANTITY_KIND: TGI

Reference set, count: 4
CNCCOC(=O)/C=C1/CCC2C(C(O)CC3C(C)(C(=O)OC)CCCC23C)C1C (stereo not given): 0.0599 µM
COc1ccc2c(c1)[C@@]1(C)CCC3c4ccc(O)cc4CCC3C1C2 (stereo not given in full): 34.8 µM
O=C(C#Cc1cn(C2CC(O)C(CO)O2)c(=O)[nH]c1=O)c1ccccc1 (stereo not given): 24.8 µM
COc1ccc(/C=N/n2c(Cc3ccc(Cl)cc3)n[nH]c2=O)c(OC)c1: > 100 µM

Sample COc1ccc(C2=CN3CCC[C@H]3C=C2c2cc(O)c(OC)c(OC)c2)cc1OC ; TGI observed: 0.0333 µM

The origin of these recorded values is PubChem BioAssay (NCI).
